TARGET: Tyrosine-protein kinase Fyn (Homo sapiens)
Sequence (P06241 whole entry): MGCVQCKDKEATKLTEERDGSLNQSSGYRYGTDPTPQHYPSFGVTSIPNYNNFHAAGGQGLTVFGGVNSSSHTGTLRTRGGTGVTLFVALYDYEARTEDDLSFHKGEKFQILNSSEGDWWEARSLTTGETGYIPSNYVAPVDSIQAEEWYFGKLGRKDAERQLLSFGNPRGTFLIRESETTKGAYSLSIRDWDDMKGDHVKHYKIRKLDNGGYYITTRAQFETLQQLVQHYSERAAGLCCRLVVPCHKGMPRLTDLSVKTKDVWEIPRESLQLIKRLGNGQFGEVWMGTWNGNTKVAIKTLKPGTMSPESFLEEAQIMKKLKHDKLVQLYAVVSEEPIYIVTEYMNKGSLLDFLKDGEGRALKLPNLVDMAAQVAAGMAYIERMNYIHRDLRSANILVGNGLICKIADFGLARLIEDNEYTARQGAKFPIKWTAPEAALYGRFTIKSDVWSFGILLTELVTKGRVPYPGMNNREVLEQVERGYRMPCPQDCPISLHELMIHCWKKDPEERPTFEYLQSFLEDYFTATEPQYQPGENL
ASSAY ENDPOINT: pIC50
Friendly reminder that pIC50 comes from taking -log10 of the concentration in mol/L.

smiles_code=c1nc(N2CCC3(CCCCN3)CC2)c2nc[nH]c2n1 assay_endpoint=pIC50 numeric_result=3.80

Then this molecule:
Which pIC50 is reported for this molecule? c1nc(N2CCC3(CCCNC3)CC2)c2nc[nH]c2n1
4.59

====

TARGET: UniProt:P06213
Sequence (P06213 28-758 limits assumed): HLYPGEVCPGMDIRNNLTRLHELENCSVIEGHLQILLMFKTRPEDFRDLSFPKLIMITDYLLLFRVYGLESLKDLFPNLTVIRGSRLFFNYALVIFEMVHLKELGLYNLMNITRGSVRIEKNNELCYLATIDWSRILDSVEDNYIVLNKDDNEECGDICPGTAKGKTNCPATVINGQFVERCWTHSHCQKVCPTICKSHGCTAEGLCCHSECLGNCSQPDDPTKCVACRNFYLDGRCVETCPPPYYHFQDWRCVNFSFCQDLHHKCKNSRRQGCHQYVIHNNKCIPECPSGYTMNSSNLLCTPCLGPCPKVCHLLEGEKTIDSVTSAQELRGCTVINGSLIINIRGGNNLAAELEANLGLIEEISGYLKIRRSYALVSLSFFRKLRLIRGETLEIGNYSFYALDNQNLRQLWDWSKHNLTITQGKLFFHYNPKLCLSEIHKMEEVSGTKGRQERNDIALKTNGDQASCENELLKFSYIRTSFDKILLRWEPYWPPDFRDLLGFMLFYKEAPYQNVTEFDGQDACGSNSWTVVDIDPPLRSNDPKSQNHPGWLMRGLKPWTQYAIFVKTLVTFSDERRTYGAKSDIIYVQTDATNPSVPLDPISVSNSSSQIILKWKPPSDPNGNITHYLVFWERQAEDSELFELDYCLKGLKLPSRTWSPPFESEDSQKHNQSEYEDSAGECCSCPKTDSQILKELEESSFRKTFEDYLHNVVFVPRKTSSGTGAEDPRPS
Sequence (P06213 763-1382 limits assumed): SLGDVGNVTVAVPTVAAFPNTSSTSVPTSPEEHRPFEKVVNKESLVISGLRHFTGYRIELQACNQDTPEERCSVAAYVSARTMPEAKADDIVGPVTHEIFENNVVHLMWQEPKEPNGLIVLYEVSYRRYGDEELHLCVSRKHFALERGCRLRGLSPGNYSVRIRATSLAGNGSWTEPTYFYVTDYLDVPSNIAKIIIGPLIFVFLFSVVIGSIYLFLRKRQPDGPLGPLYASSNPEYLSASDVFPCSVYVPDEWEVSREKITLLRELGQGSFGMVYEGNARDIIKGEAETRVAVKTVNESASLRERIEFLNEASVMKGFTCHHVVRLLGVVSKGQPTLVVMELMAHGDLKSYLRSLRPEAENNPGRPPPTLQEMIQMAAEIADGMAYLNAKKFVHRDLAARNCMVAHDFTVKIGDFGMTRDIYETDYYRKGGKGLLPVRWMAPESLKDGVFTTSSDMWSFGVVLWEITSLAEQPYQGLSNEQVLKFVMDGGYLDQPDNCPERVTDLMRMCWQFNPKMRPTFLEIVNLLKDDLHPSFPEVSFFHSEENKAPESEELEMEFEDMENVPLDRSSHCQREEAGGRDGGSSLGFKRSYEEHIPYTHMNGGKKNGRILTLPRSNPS
METHOD NOTES: Inhibition of INSR (unknown origin) at 30 uM by microfluidic mobility shift assay relative to control
Reported inhibition is given for each of the following molecules.
The reply should contain only the number, in %.

molecule=O=S(=O)(c1cccc2cnccc12)N1CCCC2(CCNCC2)C1 numeric_result=4
molecule=c1nc(N2CCC3(CCCNC3)CC2)c2nc[nH]c2n1 numeric_result=4
molecule="c1nc(N2CCCC3(CCCNC3)C2)c2nc[nH]c2n1 (stereo not drawn)" numeric_result=4
molecule=c1nc(N2CCC3(CCCCC3)CC2)c2nc[nH]c2n1 numeric_result=8
molecule="OC1CCNC2(CCN(c3ncnc4[nH]cnc34)CC2)C1 (racemic)" numeric_result=0

Then this molecule:
Given the entry c1nc(N2CCCC23CCNCC3)c2nc[nH]c2n1 , what inhibition was observed with UniProt:P06213?
9

====

TARGET: UniProt:P12931
Sequence (P12931 2-536 limits assumed): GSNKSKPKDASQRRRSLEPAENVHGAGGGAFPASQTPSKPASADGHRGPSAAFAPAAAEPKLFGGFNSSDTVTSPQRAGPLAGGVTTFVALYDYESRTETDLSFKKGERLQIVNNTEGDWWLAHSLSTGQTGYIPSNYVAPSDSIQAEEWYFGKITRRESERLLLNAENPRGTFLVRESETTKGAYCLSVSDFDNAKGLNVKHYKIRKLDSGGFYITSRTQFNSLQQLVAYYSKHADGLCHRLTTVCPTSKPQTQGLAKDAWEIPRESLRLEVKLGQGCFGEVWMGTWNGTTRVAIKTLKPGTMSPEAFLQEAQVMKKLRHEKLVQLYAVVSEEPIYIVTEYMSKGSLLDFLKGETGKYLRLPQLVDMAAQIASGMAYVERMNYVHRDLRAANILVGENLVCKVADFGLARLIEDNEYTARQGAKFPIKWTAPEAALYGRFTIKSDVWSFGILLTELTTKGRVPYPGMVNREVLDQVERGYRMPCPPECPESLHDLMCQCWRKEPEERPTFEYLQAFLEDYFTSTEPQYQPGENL
METHOD NOTES: Inhibition of SRC (unknown origin) at 30 uM by microfluidic mobility shift assay relative to control
Everything with inhibition lower than 20% is -1; everything else, including exactly 20%, is 1.

// inclusive: inhibition at least 20%? input: COC(=O)C1CCC2(CCN(c3ncnc4[nH]cnc34)CC2)NC1 (racemic)
1

What do you get for NC1(Cc2ccccc2)CCN(c2ncnc3[nH]cnc23)CC1 ?
1

What do you get for c1nc(N2CCC3(CCCN3)CC2)c2nc[nH]c2n1 ?
1

What do you get for OCC1CCC2(CCN(c3ncnc4[nH]cnc34)CC2)NC1 (racemic) ?
1

What do you get for O=S(=O)(c1cccc2cnccc12)N1CCCC2(CCCNC2)C1 (configuration not stated) ?
1

What do you get for O=S(=O)(c1cccc2cnccc12)N1CCCC12CCNCC2 ?
-1

What do you get for NC1(Cc2ccccc2)CCN(S(=O)(=O)c2cccc3cnccc23)CC1 ?
-1

What do you get for OC1CCNC2(CCN(c3ncnc4[nH]cnc34)CC2)C1 (racemic) ?
1

What do you get for c1nc(N2CCCC3(CCCNC3)C2)c2nc[nH]c2n1 (configuration not stated) ?
-1

What do you get for O=S(=O)(c1cccc2cnccc12)N1CCC2(CC1)CC(O)CCN2 (racemic) ?
-1

What do you get for O=S(=O)(c1cccc2cnccc12)N1CCC2(CCCNC2)CC1 ?
1

What do you get for O=S(=O)(c1cccc2cnccc12)N1CCC2(CCNC2)CC1 ?
-1

What do you get for O=S(=O)(c1cccc2cnccc12)N1CCC2(CCC(O)CN2)CC1 (racemic) ?
1

What do you get for O=C(C1CCC2(CCN(c3ncnc4[nH]cnc34)CC2)NC1)N1CCOCC1 (racemic) ?
-1

====

TARGET: Serine/threonine-protein kinase D2 (Homo sapiens) (UniProt Q9BZL6)
Sequence (Q9BZL6 whole entry): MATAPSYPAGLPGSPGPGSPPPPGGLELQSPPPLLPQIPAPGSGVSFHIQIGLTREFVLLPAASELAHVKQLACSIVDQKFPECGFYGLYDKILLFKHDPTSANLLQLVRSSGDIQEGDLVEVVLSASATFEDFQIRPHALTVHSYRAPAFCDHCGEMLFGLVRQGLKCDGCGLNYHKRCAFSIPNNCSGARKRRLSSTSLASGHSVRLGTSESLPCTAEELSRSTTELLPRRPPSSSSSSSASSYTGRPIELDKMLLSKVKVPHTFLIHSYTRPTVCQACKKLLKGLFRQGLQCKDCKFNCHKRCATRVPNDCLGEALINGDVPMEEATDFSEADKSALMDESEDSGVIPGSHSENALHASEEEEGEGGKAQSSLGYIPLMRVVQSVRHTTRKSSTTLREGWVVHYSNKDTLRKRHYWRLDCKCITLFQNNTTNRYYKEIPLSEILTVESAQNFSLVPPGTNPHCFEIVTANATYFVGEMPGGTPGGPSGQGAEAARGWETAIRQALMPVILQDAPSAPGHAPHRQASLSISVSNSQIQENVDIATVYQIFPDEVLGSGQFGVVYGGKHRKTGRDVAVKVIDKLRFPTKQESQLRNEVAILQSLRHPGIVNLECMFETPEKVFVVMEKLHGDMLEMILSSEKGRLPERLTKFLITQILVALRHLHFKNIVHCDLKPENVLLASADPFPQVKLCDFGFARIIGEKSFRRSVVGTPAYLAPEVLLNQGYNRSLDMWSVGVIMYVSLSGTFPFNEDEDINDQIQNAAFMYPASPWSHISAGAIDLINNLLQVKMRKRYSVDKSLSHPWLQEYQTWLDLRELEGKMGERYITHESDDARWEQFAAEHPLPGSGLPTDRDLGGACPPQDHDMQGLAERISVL
METHOD NOTES: Inhibition of PKD2 (unknown origin) at 30 uM by microfluidic mobility shift assay relative to control
Everything with inhibition lower than 40% is 0 (no); everything else, including exactly 40%, is 1 (yes).

compound="COC(=O)C1CCC2(CCN(c3ncnc4[nH]cnc34)CC2)NC1 (racemic)" target="Serine/threonine-protein kinase D2 (Homo sapiens) (UniProt Q9BZL6)" label_class="0 (no)"
compound="O=C(O)C1CCC2(CCN(c3ncnc4[nH]cnc34)CC2)NC1 (racemic)" target="Serine/threonine-protein kinase D2 (Homo sapiens) (UniProt Q9BZL6)" label_class="1 (yes)"
compound="OCC1CCC2(CCN(c3ncnc4[nH]cnc34)CC2)NC1 (racemic)" target="Serine/threonine-protein kinase D2 (Homo sapiens) (UniProt Q9BZL6)" label_class="1 (yes)"
compound=c1nc(N2CCCC23CCNCC3)c2nc[nH]c2n1 target="Serine/threonine-protein kinase D2 (Homo sapiens) (UniProt Q9BZL6)" label_class="0 (no)"

Now for a further compound.
// inclusive: inhibition at least 40%? input: O=S(=O)(c1cccc2cnccc12)N1CCC2(CCCCN2)CC1
0 (no)

Data origin, for the record: ChEMBL document CHEMBL2417369
